# experiment: Cytotoxicity against human BxPC3 cells assessed as cell viability at 30 uM after 72 hrs by CellTiter96 Aqueous1 assay
# Assay type: cell-based, BXPC-3
# condition notes: BxPC3 cells, read-out: Activity
measured metric: viability at 72 h, 30 µM (%)
One number for each entry, in %.

Note down viability at 72 h, 30 µM recorded for "Cn1c(=O)c2cc(S(=O)(=O)Nc3ccc(Cc4ccncc4)cc3)ccc2n(C)c1=O"
75

###

For each of the compounds below, state its pIC50.
Target protein (sequence): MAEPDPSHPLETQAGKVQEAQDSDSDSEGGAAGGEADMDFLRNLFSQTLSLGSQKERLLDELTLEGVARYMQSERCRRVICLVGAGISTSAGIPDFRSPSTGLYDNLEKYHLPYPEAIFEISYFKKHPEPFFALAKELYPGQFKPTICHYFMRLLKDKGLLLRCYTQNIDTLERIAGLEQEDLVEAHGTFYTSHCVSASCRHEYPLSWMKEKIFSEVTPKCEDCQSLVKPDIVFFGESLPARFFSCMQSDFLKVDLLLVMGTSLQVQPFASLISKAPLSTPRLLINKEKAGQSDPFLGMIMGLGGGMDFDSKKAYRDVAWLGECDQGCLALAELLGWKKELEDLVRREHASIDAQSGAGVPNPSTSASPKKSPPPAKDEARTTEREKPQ
Numbers only, as −log10 of the molar value.

Recorded results for 2 compounds are shown here.
query smiles: O=c1[nH]c(=O)c2cc(S(=O)(=O)Nc3ccc(Cn4ccnc4)cc3)ccc2[nH]1
pIC50: 3.80

query smiles: O=c1[nH]c(=O)c2cc(S(=O)(=O)Nc3cccc(CCc4ccncc4)c3)ccc2[nH]1
pIC50: 4.07

# context switch: different compound, same pIC50
Respond only with pIC50 recorded for "Cn1c(=O)c2cc(S(=O)(=O)Nc3ccc(Cc4ccncc4)cc3)ccc2n(C)c1=O"
3.62

###

# experimental system: NAD-dependent protein deacylase sirtuin-6 (Homo sapiens)
# Sequence (Q8N6T7 whole entry): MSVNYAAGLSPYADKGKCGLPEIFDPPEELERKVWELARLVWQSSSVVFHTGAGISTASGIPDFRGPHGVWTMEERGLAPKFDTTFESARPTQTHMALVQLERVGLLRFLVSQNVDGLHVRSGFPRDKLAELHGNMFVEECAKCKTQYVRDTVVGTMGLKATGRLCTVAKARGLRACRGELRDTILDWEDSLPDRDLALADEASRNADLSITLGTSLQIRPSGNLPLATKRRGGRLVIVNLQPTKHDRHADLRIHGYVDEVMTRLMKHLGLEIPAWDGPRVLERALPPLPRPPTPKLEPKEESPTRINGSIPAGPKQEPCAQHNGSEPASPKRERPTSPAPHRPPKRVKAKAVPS
# experiment: Inhibition of human recombinant SIRT6 deacetylase activity using Arg-His-Lys-Lys(AC)-AMC as a substrate by […] assay
measured metric: pIC50
Give bare numbers, as −log10 of the molar value.

query smiles: CC(=O)Nc1ccc(S(=O)(=O)Nc2ccc(Oc3cccnc3)cc2)cc1
pIC50: 3.62
//
query smiles: Cn1c(=O)sc2cc(S(=O)(=O)Nc3ccc(Oc4cccnc4)cc3)ccc21
pIC50: 3.99
//
query smiles: Cn1ccc2cc(NS(=O)(=O)c3ccc4[nH]c(=O)[nH]c(=O)c4c3)ccc21
pIC50: 4.09

Let us move to another entry and its pIC50.
Return pIC50 for the following molecule: "O=c1[nH]c(=O)c2cc(S(=O)(=O)Nc3ccc(Oc4ccccc4)cc3)ccc2[nH]1"
3.90
